Target: UniProtKB P21453
Assay: S1P1R antagonist assay (fluorescent membrane potential dye, cAMP readout)
Conditions: HEK293 cells expressing human S1P1 receptors and CNG channel; 500 nM NECA; S1P1R agonist 10 nM; 90 minutes; read-out: EC50 or IC50 value
Quantity measured: IC50

Compound	IC50
O=C(COc1ccccc1O)NC(COCc1ccccc1)C(=O)Nc1ccc(Oc2ccccc2)cc1 (stereo not shown) [Compound 26]	> 1000 nM
O=C(NC(COCc1ccccc1)C(=O)Nc1ccc(Oc2ccccc2)cc1)c1ccc2[nH]ccc2c1 (stereo not shown) [Compound 20]	> 1000 nM
O=C(NC(COCc1ccccc1)C(=O)Nc1ccc(Oc2ccccc2)cc1)c1ccccc1Cl (stereo not shown) [Compound 274]	> 1000 nM

Field: next compound
// query Retrieve IC50 measured for O=C(CN1CC=CC1)N[C@@H](COCc1ccccc1)C(=O)Nc1ccc(Oc2ccc(F)cc2)cc1 [Compound 214] and print it.
// result ≤ 300 nM

---

Reported values of IC50 for individual entries
Molecular target: human S1P1 receptors (Homo sapiens, UniProt P21453)
Sequence (P21453 whole entry): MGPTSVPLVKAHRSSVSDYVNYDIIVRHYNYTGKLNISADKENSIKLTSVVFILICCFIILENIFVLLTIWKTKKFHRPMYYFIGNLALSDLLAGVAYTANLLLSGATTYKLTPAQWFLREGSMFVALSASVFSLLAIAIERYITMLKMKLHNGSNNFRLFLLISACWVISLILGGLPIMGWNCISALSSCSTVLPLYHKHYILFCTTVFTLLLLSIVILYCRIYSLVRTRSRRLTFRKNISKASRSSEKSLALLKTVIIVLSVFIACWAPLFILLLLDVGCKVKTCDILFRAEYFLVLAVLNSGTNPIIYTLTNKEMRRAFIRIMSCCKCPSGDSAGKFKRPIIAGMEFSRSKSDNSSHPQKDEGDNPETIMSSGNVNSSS
Test: S1P1R antagonist assay (fluorescent membrane potential dye, cAMP readout)
Conditions: HEK293 cells expressing human S1P1 receptors and CNG channel; 500 nM NECA; S1P1R agonist 10 nM; 90 minutes; read-out: EC50 or IC50 value

Compound	Target	IC50
O=C(Nc1ccc(Oc2ccc(F)cc2)cc1)[C@@H]1C[C@@H](N2Cc3ccccc3C2)CN1C(=O)Cn1cncn1	human S1P1 receptors (Homo sapiens, UniProt P21453)	300 to 1000 nM
O=C(CN1CCN(c2ncccn2)CC1)N[C@@H](COCc1ccccc1)C(=O)Nc1ccc(Oc2ccc(F)cc2)cc1	human S1P1 receptors (Homo sapiens, UniProt P21453)	> 1000 nM
O=C(CN1CCCC2CCCCC21)N[C@@H](COCc1ccccc1)C(=O)Nc1ccc(Oc2ccc(F)cc2)cc1 (stereo partly shown)	human S1P1 receptors (Homo sapiens, UniProt P21453)	> 1000 nM

Field: next compound
// query Retrieve IC50 measured for O=C(NC(COCc1ccccc1)C(=O)Nc1ccc(Oc2ccccc2)cc1)c1cc(F)cc(C(F)(F)F)c1 (stereo not shown) and print it.
// result > 1000 nM

---

Molecular target: human S1P1 receptors (Homo sapiens, UniProt P21453)
Assay: S1P1R antagonist assay (fluorescent membrane potential dye, cAMP readout)
Conditions: HEK293 cells expressing human S1P1 receptors and CNG channel; 500 nM NECA; S1P1R agonist 10 nM; 90 minutes; read-out: EC50 or IC50 value
pIC50: −log10 of the molar value.
Quantity measured: pIC50

Molecule	Target	pIC50
O=C(Cc1ccc(Br)cc1)NC(COCc1ccccc1)C(=O)Nc1ccc(Oc2ccccc2)cc1 (stereo not shown) [Compound 390]	human S1P1 receptors (Homo sapiens, UniProt P21453)	< 6.00
O=C(Cc1cccc(OC(F)(F)F)c1)N[C@@H](COCc1ccccc1)C(=O)Nc1ccc(Oc2ccc(F)cc2)cc1 [Compound 102]	human S1P1 receptors (Homo sapiens, UniProt P21453)	< 6.00
O=C(NC(COCc1ccccc1)C(=O)Nc1ccc(Oc2ccccc2)cc1)C1CC1 (stereo not shown) [Compound 277]	human S1P1 receptors (Homo sapiens, UniProt P21453)	≥ 6.52
COc1ccc(C(=O)NC(COCc2ccccc2)C(=O)Nc2ccc(Oc3ccccc3)cc2)c(C)c1 (stereo not shown) [Compound 309]	human S1P1 receptors (Homo sapiens, UniProt P21453)	< 6.00
O=C(CN1CCSCC1)N[C@@H](COCc1ccccc1)C(=O)Nc1ccc(Oc2ccc(F)cc2)cc1 [Compound 266]	human S1P1 receptors (Homo sapiens, UniProt P21453)	6.00 to 6.52
COCC(=O)N1C[C@H](Cc2ccccc2)C[C@H]1C(=O)Nc1ccc(Oc2ccc(F)cc2)cc1 [Compound 122]	human S1P1 receptors (Homo sapiens, UniProt P21453)	≥ 6.52

Field: next molecule
// query Retrieve pIC50 measured for O=C(Nc1ccc(Oc2ccc(F)cc2)cc1)[C@@H]1CN(C(=O)OCc2ccccc2)CCN1C(=O)Cc1c[nH]cn1 [Compound 257] and print it.
// result 6.00 to 6.52

---

Target: human S1P1 receptors (Homo sapiens)
Experiment: S1P1R antagonist assay (fluorescent membrane potential dye, cAMP readout)
Settings: HEK293 cells expressing human S1P1 receptors and CNG channel; 500 nM NECA; S1P1R agonist 10 nM; 90 minutes; read-out: EC50 or IC50 value
Reported values of IC50 for individual entries

The following compounds have reported results that may help.
Compound	Obs value
O=C(Cc1ccc(OCc2ccccc2)cc1)NC(COCc1ccccc1)C(=O)Nc1ccc(Oc2ccccc2)cc1 (stereo not shown)	> 1 µM
O=C(Cc1c[nH]cn1)N[C@@H](COCc1ccc(F)cc1)C(=O)Nc1ccc(Oc2ccc(Cl)cc2)cc1	≤ 0.3 µM
COc1cccc(C[C@@H]2C[C@@H](C(=O)Nc3ccc(Oc4ccc(F)cc4)cc3)N(C(=O)Cn3nccn3)C2)c1	≤ 0.3 µM
O=C(Cc1coc(-c2ccccc2)n1)N[C@@H](COCc1ccc(F)cc1)C(=O)Nc1ccc(Oc2ccc(F)cc2)cc1	> 1 µM
O=C(NC(COCc1ccccc1)C(=O)Nc1ccc(Oc2ccccc2)cc1)c1c[nH]c2ccccc12 (stereo not shown)	> 1 µM

// query Retrieve IC50 measured for "Cc1cc(F)ccc1Oc1ccc(NC(=O)[C@@H]2C[C@@H](Cc3ccc(F)cc3)CN2C(=O)Cn2cncn2)cc1" and print it.
// result ≤ 0.3 µM

// query Retrieve IC50 measured for "Cc1nc(CC(=O)N[C@@H](COCc2ccccc2)C(=O)Nc2ccc(Oc3ccc(F)cc3)cc2)c[nH]1" and print it.
// result ≤ 0.3 µM

---

Target: UniProt P21453
Assay: S1P1R antagonist assay (fluorescent membrane potential dye, cAMP readout)
Conditions: HEK293 cells expressing human S1P1 receptors and CNG channel; 500 nM NECA; S1P1R agonist 10 nM; 90 minutes; read-out: EC50 or IC50 value
pIC50: −log10 of the molar value.
Quantity measured: pIC50

The following compounds have reported results that may help.
Compound	pIC50
O=C(CCC(=O)c1ccccc1)NC(COCc1ccccc1)C(=O)Nc1ccc(Oc2ccccc2)cc1 (stereo not shown)	6.00 to 6.52
O=C(Cc1ccccc1)N[C@@H](COCc1ccccc1)C(=O)Nc1ccc(Oc2ccc(F)cc2)cc1	6.00 to 6.52
O=C(Cc1c[nH]cn1)N[C@@H](COCc1ccccc1)C(=O)Nc1cccc(Oc2ccccc2)c1	≥ 6.52
O=C(Nc1ccc(Oc2ccc(F)cc2)cc1)[C@@H]1C[C@@H](Cc2cccc(Cl)c2)CN1C(=O)Cn1ccnn1	≥ 6.52
O=C(Cc1c[nH]cn1)N[C@@H](COCc1ccccc1)c1nc2cc(Oc3ccc(F)cc3)ccc2[nH]1	6.00 to 6.52

// query Retrieve pIC50 measured for "O=C(Cc1cnc[nH]1)N[C@@H](COCc1ccccc1)C(=O)Nc1ccc(Oc2ccccc2)c(Cl)c1" and print it.
// result ≥ 6.52

// query Retrieve pIC50 measured for "Cc1cc(Oc2ccc(NC(=O)[C@@H]3C[C@@H](Cc4ccc(F)cc4)CN3C(=O)Cn3cncn3)cc2)ccc1F" and print it.
// result ≥ 6.52

---

Reported values of IC50 for individual entries
Target: human S1P1 receptors (Homo sapiens, UniProt P21453)
Assay: S1P1R antagonist assay (fluorescent membrane potential dye, cAMP readout)
Conditions: HEK293 cells expressing human S1P1 receptors and CNG channel; 500 nM NECA; S1P1R agonist 10 nM; 90 minutes; read-out: EC50 or IC50 value

The following compounds have reported results that may help.
Compound	Quantity measured	Obs value
O=C(CSc1ncccn1)NC(COCc1ccccc1)C(=O)Nc1ccc(Oc2ccccc2)cc1 (stereo not drawn)	IC50	> 1 µM
Cc1noc(C)c1NC(=O)N[C@@H](COCc1ccccc1)C(=O)Nc1ccc(Oc2ccc(F)cc2)cc1	IC50	≤ 0.3 µM
O=C(Cn1cncn1)N[C@@H](COCc1ccccc1OC(F)(F)F)C(=O)Nc1ccc(Oc2ccc(F)cc2)cc1	IC50	≤ 0.3 µM
O=C(NC(COCc1ccccc1)C(=O)Nc1ccc(Oc2ccccc2)cc1)c1ccco1 (stereo not drawn)	IC50	> 1 µM
Cc1cc(CC(=O)N[C@@H](COCc2ccccc2)C(=O)Nc2ccc(Oc3ccc(F)cc3)cc2)[nH]n1	IC50	≤ 0.3 µM

// query Retrieve IC50 measured for "Cc1cn(CC(=O)N[C@@H](COCc2ccccc2)C(=O)Nc2ccc(Oc3ccc(F)cc3)cc2)nn1" and print it.
// result ≤ 0.3 µM

// query Retrieve IC50 measured for "O=C(Nc1ccc(Oc2ccc(F)cc2)cc1)[C@@H]1C[C@@H](Cc2ccc(F)cc2Cl)CN1C(=O)Cn1cncn1" and print it.
// result ≤ 0.3 µM

// query Retrieve IC50 measured for CN(C)C(=O)CCC(=O)NC(COCc1ccccc1)C(=O)Nc1ccc(Oc2ccccc2)cc1 (stereo not drawn) and print it.
// result > 1 µM

// query Retrieve IC50 measured for "O=C(Nc1ccc(Oc2ccc(F)cc2)cc1)[C@@H]1C[C@@H](Cc2c(F)cc(F)cc2F)CN1C(=O)Cn1cncn1" and print it.
// result ≤ 0.3 µM

// query Retrieve IC50 measured for "Cc1cc(Oc2ccc(F)cc2)ccc1NC(=O)[C@H](COCc1ccccc1)NC(=O)Cc1cnc[nH]1" and print it.
// result > 1 µM

// query Retrieve IC50 measured for Cc1cc(C(=O)NC(COCc2ccccc2)C(=O)Nc2ccc(Oc3ccccc3)cc2)ccc1Cl (stereo not drawn) and print it.
// result > 1 µM

// query Retrieve IC50 measured for CCCOc1ccc(C(=O)NC(COCc2ccccc2)C(=O)Nc2ccc(Oc3ccccc3)cc2)cc1 (stereo not drawn) and print it.
// result > 1 µM

// query Retrieve IC50 measured for CC(C(=O)N[C@@H](COCc1ccccc1)C(=O)Nc1ccc(Oc2ccc(F)cc2)cc1)c1c[nH]cn1 (stereo partly drawn) and print it.
// result ≤ 0.3 µM

// query Retrieve IC50 measured for "O=C(CN1CCC(N2CCOCC2)CC1)N[C@@H](COCc1ccccc1)C(=O)Nc1ccc(Oc2ccc(F)cc2)cc1" and print it.
// result > 1 µM

// query Retrieve IC50 measured for "COc1ccc(Oc2ccc(NC(=O)[C@H](COCc3ccccc3)NC(=O)Cc3c[nH]cn3)cc2)cc1" and print it.
// result ≤ 0.3 µM

// query Retrieve IC50 measured for O=C(NC(COCc1ccccc1)C(=O)Nc1ccc(Oc2ccccc2)cc1)C(=O)c1ccccc1 (stereo not drawn) and print it.
// result > 1 µM

// query Retrieve IC50 measured for COc1ccc2[nH]c(C)c(CC(=O)NC(COCc3ccccc3)C(=O)Nc3ccc(Oc4ccccc4)cc3)c2c1 (stereo not drawn) and print it.
// result > 1 µM

Data provenance: patent US8791102B2
